Target: T1, AFP158/HLA-A*02:01 complex (human)
T1 construct: flowed over the chip in SPR; also called AFP158 pro
Assay: SPR, scFv captured, pMHC in flow;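 also: complex injected at several concentrations over crude scFv, association then running-buffer dissociation, KD estimated from kinetic on- and off-rate constants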
Recorded Kd values for a group of binders are listed next.
Respond with the bare value in µM.

Solved cases below.
LD97T (scFv, AS170036 VL1VH1 scFv mutein) scFv: QSALTQPRSVSGSPGQSVTISCAGTSSDVGSENYVSWYQQHPGKAPKLMIYQVNKRASGVPDRFSGSKSGNTASLTISGLQAEDEADYYCASYRSSTHNIVFGGGTKLTVLGGGGSGGGGSGGGGSEVQLVESGGGLVQPGGSLRLSCAASGFTFSSYAMSWVRQAPGKGLEWVSTINSGTGSPYYADSVKGRFTISRDNSKNTLYLQMNSLRAEDTAVYYCAKNFFDGSWFLGPPAMDYWGQGTLVTVSSHHHHHH | 0.36
LY93W (scFv, AS170036 VL1VH1 scFv mutein) scFv: QSALTQPRSVSGSPGQSVTISCAGTSSDVGSENYVSWYQQHPGKAPKLMIYQVNKRASGVPDRFSGSKSGNTASLTISGLQAEDEADYYCASWRSSDHNIVFGGGTKLTVLGGGGSGGGGSGGGGSEVQLVESGGGLVQPGGSLRLSCAASGFTFSSYAMSWVRQAPGKGLEWVSTINSGTGSPYYADSVKGRFTISRDNSKNTLYLQMNSLRAEDTAVYYCAKNFFDGSWFLGPPAMDYWGQGTLVTVSSHHHHHH | 0.24

Prompt line: Can you share its Kd? I mean this binder: LH98K (scFv, AS170036 VL1VH1 scFv mutein) scFv: QSALTQPRSVSGSPGQSVTISCAGTSSDVGSENYVSWYQQHPGKAPKLMIYQVNKRASGVPDRFSGSKSGNTASLTISGLQAEDEADYYCASYRSSDKNIVFGGGTKLTVLGGGGSGGGGSGGGGSEVQLVESGGGLVQPGGSLRLSCAASGFTFSSYAMSWVRQAPGKGLEWVSTINSGTGSPYYADSVKGRFTISRDNSKNTLYLQMNSLRAEDTAVYYCAKNFFDGSWFLGPPAMDYWGQGTLVTVSSHHHHHH
Response line: 1.1
